Let's look at some binders and their measured pIC50.
- MEASURED_ON: HLA class I molecule A02.01
- ASSAY_PROTOCOL: competition with radiolabeled reference peptide on purified MHC I
- COND: remark: other sources report otherwise
Note on units: pIC50 is unitless, being -log10 of a concentration expressed in mol/L.

Given the binder `VMAGLGSPYV` , write its reported pIC50.
6.99
